Target: T1, TIGIT fusion protein with Fc or mFc tag (human, UniProt Q495A1 22-141)
T1 construct: extracellular domain; also called TIGIT-Fc; TIGIT-mFc
T1 sequence (looked up): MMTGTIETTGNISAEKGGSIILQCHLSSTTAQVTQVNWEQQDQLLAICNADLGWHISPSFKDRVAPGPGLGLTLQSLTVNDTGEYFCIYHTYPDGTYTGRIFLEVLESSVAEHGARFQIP
Assay: HTRF blocking assay: TIGIT-Fc or TIGIT-mFc with biotinylated CD155 as the blocked ligand, ratio 665/620
Hi there, I'd appreciate the recorded IC50 (read off the curve) for every entry that follows.

Answered cases to consult:
binder: h1708-01 (antibody, human IgG4 S228P, kappa, V domains shown, also called humanized TIGIT antibody h1708-01) VH: EVQLVQSGAEVKKPGASVKVSCKASGYTFTNYWMHWVRQAPGQGLEWMGRIDPDSTGSKYNEKFKTRVTMTRDTSTSTVYMELSSLRSEDTAVYYCAREGAYGYYFDYWGQGTLVTVSS VL: DIQMTQSPSSLSASVGDRVTITCRASENIYSYLAWYQQKPGKAPKLLIYNARTLAEGVPSRFSGSGSGTDFTLTISSLQPEDFATYYCQYHSGSPLPFGGGTKVEIKR
IC50 (read off the curve): ~1 nM
//
binder: h1708-04 (antibody, human IgG4 S228P, kappa, V domains shown, also called humanized TIGIT antibody h1708-04) VH: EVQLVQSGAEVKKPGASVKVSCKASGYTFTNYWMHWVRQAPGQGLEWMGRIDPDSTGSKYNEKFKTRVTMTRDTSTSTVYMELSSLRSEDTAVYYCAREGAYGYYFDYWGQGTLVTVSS VL: DIQMTQSPSSLSASVGDRVTITCRASENIYSYLAWYQQKPGKSPKLLIYNARTLAEGVPSRFSGSGSGTDFTLTISSLQPEDFATYYCQYHSGSPLPFGGGTKVEIKR
IC50 (read off the curve): ~1 nM

Now examine the next entry.
# return recorded IC50 (read off the curve) for entry h1708-06 (antibody, human IgG4 S228P, kappa, V domains shown, also called humanized TIGIT antibody h1708-06) VH: EVQLVQSGAEVKKPGASVKVSCKASGYTFTNYWMHWVRQAPGQGLEWIGRIDPDSTGSKYNEKFKTRVTMTVDTSTSTAYMELSSLRSEDTAVYYCAREGAYGYYFDYWGQGTLVTVSS VL: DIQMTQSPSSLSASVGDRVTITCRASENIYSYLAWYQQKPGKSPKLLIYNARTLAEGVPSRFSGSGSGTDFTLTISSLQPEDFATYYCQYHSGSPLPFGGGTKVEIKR
~1 nM
